protocol notes: Cmax in CD-1 mouse at 50 mg/kg, po administered through gavage by LC-MS/MS analysis
Type: ADME, organism-based
Design: dose 50 mg/kg, route oral
measurement parameters: in vivo
measured attribute: Cmax (µM)

[
  {
    "smiles input": "CC(C)NC(=O)[C@H]1CC[C@@H](n2/c(=N/C(=O)c3ccc(F)cc3)[nH]c3ccc(CN4CCC(C(C)(C)O)CC4)cc32)CC1",
    "numeric readout": 10.7
  }
]

* * *

Measured fraction unbound at 7 h, listed per entry for reference.
protocol notes: Fraction unbound in CD-1 mouse plasma after 7 hrs by equilibrium dialysis method
Format: ADME, cell-free
measured attribute: fraction unbound at 7 h

[
  {
    "smiles input": "CC(C)NC(=O)[C@H]1CC[C@@H](n2/c(=N/C(=O)c3cccc(C(F)(F)F)c3)[nH]c3ccc(CN4CCC(C(C)(C)O)CC4)cc32)CC1",
    "measured attribute": "fraction unbound at 7 h",
    "numeric readout": 0.012
  },
  {
    "smiles input": "CC(C)NC(=O)[C@H]1CC[C@@H](n2/c(=N/C(=O)c3cc(F)cc(F)c3)[nH]c3ccc(CN4CCC(C(C)(C)O)CC4)cc32)CC1",
    "measured attribute": "fraction unbound at 7 h",
    "numeric readout": 0.046
  },
  {
    "smiles input": "CC(C)NC(=O)[C@H]1CC[C@@H](n2/c(=N/C(=O)c3cc(F)cc(Cl)c3)[nH]c3ccc(CN4CCC(C(C)(C)O)CC4)cc32)CC1",
    "measured attribute": "fraction unbound at 7 h",
    "numeric readout": 0.011
  },
  {
    "smiles input": "CC(C)NC(=O)[C@H]1CC[C@@H](n2/c(=N/C(=O)c3ccc(F)cc3)[nH]c3ccc(CN4CCC(C(C)(C)O)CC4)cc32)CC1",
    "measured attribute": "fraction unbound at 7 h",
    "numeric readout": 0.02
  }
]

* * *

protocol notes: Intrinsic clearance in Beagle dog liver microsomes at 1 uM by LC-MS/MS analysis in presence of NADPH
Assay type: ADME, Canis lupus familiaris
measurement parameters: read-out: CLH
measured attribute: microsomal CLint at 1 µM (µL/min/mg)

[
  {
    "smiles input": "CC(C)NC(=O)[C@H]1CC[C@@H](n2/c(=N/C(=O)c3ccc(F)cc3)[nH]c3ccc(CN4CCC(C(C)(C)O)CC4)cc32)CC1",
    "numeric readout": 33
  }
]

* * *

protocol notes: Intrinsic clearance in Sprague-Dawley rat liver microsomes at 1 uM by LC-MS/MS analysis in presence of NADPH
Type: ADME
measurement parameters: read-out: CLH

[
  {
    "smiles input": "CC(C)NC(=O)[C@H]1CC[C@@H](n2/c(=N/C(=O)c3ccc(F)cc3)[nH]c3ccc(CN4CCC(C(C)(C)O)CC4)cc32)CC1",
    "units label": "µL/min/mg",
    "microsomal CLint at 1 µM": 13
  }
]

* * *

protocol notes: Ratio of drug level in blood to plasma in CD-1 mouse at 1 uM treated 20 mins after amide hydrolysis inhibitor DFP challenge measured after 1 hr by LC-MS/MS analysis
Format: ADME
measurement parameters: whole blood
measured attribute: blood plasma ratio at 1 h, 1 µM

[
  {
    "smiles input": "CC(C)NC(=O)[C@H]1CC[C@@H](n2/c(=N/C(=O)c3cc(F)cc(Cl)c3)[nH]c3ccc(CN4CCC(C(C)(C)O)CC4)cc32)CC1",
    "numeric readout": 0.9
  },
  {
    "smiles input": "CC(C)NC(=O)[C@H]1CC[C@@H](n2/c(=N/C(=O)c3cc(F)cc(F)c3)[nH]c3ccc(CN4CCC(C(C)(C)O)CC4)cc32)CC1",
    "numeric readout": 0.9
  },
  {
    "smiles input": "CC(C)NC(=O)[C@H]1CC[C@@H](n2/c(=N/C(=O)c3cccc(C(F)(F)F)c3)[nH]c3ccc(CN4CCC(C(C)(C)O)CC4)cc32)CC1",
    "numeric readout": 0.9
  }
]

Sourced from ChEMBL document CHEMBL3526060
